Tested on: SK-OV-3
Assay: NCI tumour cell line growth inhibition, 48 h
Active and inactive are the calls of the source. Rule as the data show it: active = GI50 up to about 1.1 µM and inactive = higher.
measure: GI50

Known GI50 results, listed for orientation:
>>> result("C#CCn1c2c(c3ccccc3c1=O)C(=O)c1ccccc1-2")
"27.4 µM (inactive)"
>>> result("c1ccc(CN2CCC3(CC2)SSC2(CCN(Cc4ccccc4)CC2)SS3)cc1")
"> 100 µM (inactive)"
>>> result("COc1cc2c(c(OC)c1OC)-c1[nH]ncc1CC2")
"> 100 µM (inactive)"
>>> result("NS(=O)(=O)c1ccc(NC(=S)NC(=O)Nc2ccc(Cl)c(Cl)c2)cc1")
"18.5 µM (inactive)"
>>> result("CC(C)CCCC(C)[C@H]1CC[C@H]2N/C(=N/Cc3ccccc3)CCC[C@]12C (stereo not given in full)")
"5.31 µM (inactive)"

Working through the 3 compounds below one at a time, give GI50 for each.
1. O=C(CCC(=O)Nc1ccc(Cl)c(Cl)c1)CC(=O)c1ccc(Br)cc1
2. O=C(/C=C/CC(O)(c1ccccc1)c1ccccc1)Nc1ccccc1Cl
3. C/C(=C\CC/C=C(\C)CC/C=C(\C)CCC1SC1(C)C)CC/C=C(\C)CCC1OC1(C)C (stereo not given)

Result:
["> 100 µM (inactive)", "> 100 µM (inactive)", "> 100 µM (inactive)"]

Working through the 2 compounds below one at a time, give GI50 for each.
1. CC(C)C1CC2C(=O)N(c3ccccc3)C(=O)C2c2[nH]c3ccccc3c21 (stereo not given)
2. C[C@]12CC[C@@H]3c4ccccc4CC[C@H]3[C@@H]1CC[C@@H]2O

Result:
1: 20.5 µM (inactive); 2: > 100 µM (inactive)
